Listed compounds paired with reported Activity
Target: Tryptophan 5-hydroxylase 1 (Rattus norvegicus)
Sequence (whole entry): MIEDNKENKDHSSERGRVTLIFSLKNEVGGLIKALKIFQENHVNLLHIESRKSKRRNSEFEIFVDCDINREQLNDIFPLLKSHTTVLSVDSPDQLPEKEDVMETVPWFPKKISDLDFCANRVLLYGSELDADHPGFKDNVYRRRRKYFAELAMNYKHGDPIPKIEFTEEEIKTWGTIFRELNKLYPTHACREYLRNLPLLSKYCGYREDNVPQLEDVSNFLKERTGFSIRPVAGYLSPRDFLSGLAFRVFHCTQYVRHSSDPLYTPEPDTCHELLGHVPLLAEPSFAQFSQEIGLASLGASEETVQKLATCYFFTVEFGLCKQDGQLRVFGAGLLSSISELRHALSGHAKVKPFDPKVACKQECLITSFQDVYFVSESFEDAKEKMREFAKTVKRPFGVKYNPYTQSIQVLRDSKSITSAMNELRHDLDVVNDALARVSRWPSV
Experiment: Compound was tested for its effect on NSD 1015 induced accumulation of 5-HTP in rats corpus striatum at a dosage of 0.10 umol/kg
Format: functional, tissue-based
# number only, unit ng/g dropped from output

CCCN(CCC)[C@@H]1CCc2cccc(O)c2C1 = 78
CCCN(CCC)[C@H]1CCc2cccc(O)c2C1 = 94
CCN(CC)[C@@H]1CCc2cccc(O)c2C1 = 68

Now, please, on to the next compound.
Which value of Activity has been reported for CN(C)[C@@H]1CCc2cccc(O)c2C1 in the records? 88
